MEASUREMENT_TARGET: human β-Secretase (Homo sapiens, UniProt P56817)
Construct: soluble part of the human β-Secretase (AA 1-AA 460); Fc domain of IgG1; made in house
Sequence (P56817 22-460): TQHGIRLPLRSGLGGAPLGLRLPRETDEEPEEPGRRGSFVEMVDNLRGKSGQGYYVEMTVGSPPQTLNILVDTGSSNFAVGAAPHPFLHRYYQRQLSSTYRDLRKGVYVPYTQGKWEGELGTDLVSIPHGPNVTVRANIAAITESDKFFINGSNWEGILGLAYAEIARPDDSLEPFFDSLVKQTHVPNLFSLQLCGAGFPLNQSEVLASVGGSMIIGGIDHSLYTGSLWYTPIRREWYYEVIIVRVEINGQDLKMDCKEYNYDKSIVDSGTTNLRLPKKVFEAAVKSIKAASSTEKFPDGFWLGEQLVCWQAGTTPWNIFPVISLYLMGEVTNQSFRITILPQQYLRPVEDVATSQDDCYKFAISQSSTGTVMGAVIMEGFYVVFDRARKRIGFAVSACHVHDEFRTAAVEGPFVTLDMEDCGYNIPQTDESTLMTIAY
METHOD_SUMMARY: TR-FRET assay (β-secretase enzyme, sBACE-Fc)
Assay type: biochemical
APPLIED_CONDITIONS: soluble human β-secretase (sBACE-Fc), substrate (Europium)[…](Qsy7) 100 nM, pH4.5; read-out: IC50 in TR-FRET assay
pIC50: −log10 of the molar value.
pIC50 of 7 or higher: satisfied. Under 7: not satisfied.

COc1ccc(C2(c3cccc(-c4cncnc4)c3)N=C(N)c3c(F)cccc32)cc1C#N (centres unmarked) [Example 43] : not satisfied
Cc1cc(C2(c3cccc(-c4cncnc4)c3)N=C(N)c3c(F)cc(Cl)cc32)ccn1 (centres unmarked) [Example 56] : not satisfied
Cc1cc(C2(c3cc(-c4cncc(F)c4)ccc3F)N=C(N)c3c(F)cccc32)ccn1 (centres unmarked) [Example 4] : not satisfied
COc1c(C)cc(C2(c3cccc(-c4cncnc4)c3)N=C(N)c3c(F)cccc32)cc1C#N (centres unmarked) [Example 54] : satisfied
N#Cc1cncc(-c2ccc(F)c(C3(c4ccnc(C(F)(F)F)c4)N=C(N)c4c(F)cccc43)c2)c1 (centres unmarked) [Example 7] : not satisfied

Now for a further compound.
Ask: Can COc1ccc(C2(c3ccnc(C(F)(F)F)c3)N=C(N)c3c(F)cccc32)cc1-c1cncnc1 (centres unmarked) [Example 51] be said to have pIC50 at or above 7?
Reply: not satisfied

---

MEASUREMENT_TARGET: human β-Secretase (Homo sapiens, UniProt P56817)
Construct: soluble part of the human β-Secretase (AA 1-AA 460); Fc domain of IgG1; made in house
METHOD_SUMMARY: TR-FRET assay (β-secretase enzyme, sBACE-Fc)
Type: biochemical
APPLIED_CONDITIONS: soluble human β-secretase (sBACE-Fc), substrate (Europium)[…](Qsy7) 100 nM, pH4.5; read-out: IC50 in TR-FRET assay
Structures can show the parent of a compound that is named as a salt.
Define the label as 1 when IC50 is strictly less than 400 nM and as 0 in all remaining cases.

Would you please look over these solved cases?
NC1=NC(c2ccncc2)(c2ccc(F)c(-c3cncnc3)c2)c2cccc(F)c21 (stereo not shown) : 1
NC1=NC(c2ccnc(-c3cncnc3)c2)(c2ccnc(C3CC3)c2)c2cccc(F)c21 (stereo not shown) : 0

Ask: # strict comparison: is reported IC50 < 400 nM? input = COc1cccc(-c2cc(C3(c4cncnc4)N=C(N)c4c(F)cccc43)ccc2F)c1F (stereo not shown)
Reply: 0

Ask: IC50 under 400 nM? Item: NC1=NC(c2cccc(-c3cnccn3)c2)(c2ccnc(C(F)(F)F)c2)c2cccc(F)c21 (stereo not shown)
Reply: 1

Ask: Consider the compound Cc1cc(C2(c3ccnc(-c4cncc(F)c4)c3)N=C(N)c3c(F)cccc32)nc(C)c1OC(F)F (stereo not shown) . Is its IC50 strictly less than 400 nM?
Reply: 0

Ask: Is IC50 strictly under 400 nM for the entry N#Cc1cncc(-c2cc(C3(c4ccnc(C(F)(F)F)c4)N=C(N)c4c(F)cccc43)ccc2F)c1 (stereo not shown) [Example 25, trifluoroacetate] ?
Reply: 1

Ask: # strict comparison: is reported IC50 < 400 nM? input = NC1=NC(c2ccnc(C(F)(F)F)c2)(c2cc(-c3cncnc3)ccc2F)c2cccc(F)c21 (stereo not shown)
Reply: 0

Ask: Check if IC50 falls below 400 nM for COc1c(C)cc(C2(c3ccnc(-c4cncnc4)c3)N=C(N)c3c(F)cccc32)nc1C (stereo not shown) .
Reply: 0
